experiment: viability loss with induced miR-34 in A549 – imaging, A549 dox-inducible miR-34, nuclei and caspase counts, primary screen (AID 1347080); conditions: A549 miR-34 inducible, Hoechst nuclei count, 48 h; measured here: relative caspase fold change +Dox/-Dox
Each record's fold change is compared with lo = under 0.5, med = from 0.5 up to 0.8, hi = 0.8 and over to give its class.

Q: Please indicate the class for Nc1[nH]c(=O)[nH]c(=O)c1N based on its fold change.
A: lo

Q: Please indicate the class for CC(C)NCCCn1c(Sc2cc3c(cc2I)OCO3)nc2c(N)ncnc21 based on its fold change.
A: lo

Q: Please indicate the class for CC(C)(C)CC(C)(C)c1ccc(OCOCCOCCO)c(Cc2cc(C(C)(C)CC(C)(C)C)cc(Cc3cc(C(C)(C)CC(C)(C)C)ccc3OCOCCOCCO)c2OCOCCOCCO)c1 based on its fold change.
A: hi

Q: Please indicate the class for COc1cc(CCc2cc(NC(=O)c3ccc(N4CC(C)NC(C)C4)cc3)n[nH]2)cc(OC)c1 (stereo unspecified) based on its fold change.
A: hi

Q: Please indicate the class for O=C(Nc1n[nH]c(Cc2ccccc2)n1)N1CCN(c2ncccn2)CC1 based on its fold change.
A: hi

Q: Please indicate the class for CCc1c(Cl)c(O)c(Cl)c(O)c1C(=O)OC1C(C)OC(OCC2=CC=CCC(O)C(C)=CC(CC)C(O[C@@H]3OC(C)(C)C(OC(=O)C(C)C)C(O)C3O)C(C)=CC(C)=CC[C@H](C(C)O)OC2=O)C(OC)C1O (stereo partly specified) based on its fold change.
A: med

Q: Please indicate the class for COc1ccc(-c2ncnc3sc(C)c(C)c23)c2cccnc12 based on its fold change.
A: hi

Q: Please indicate the class for O=C(NN=Cc1cc(Br)c(O)c(Br)c1O)c1cccc(Br)c1 based on its fold change.
A: lo

Q: Please indicate the class for O=C(O)c1ccc(O)cc1O based on its fold change.
A: lo

Q: Please indicate the class for O=C(Nc1ccccc1)Nc1ccc(-c2ccc(C(=O)C3CCCC3C(=O)O)cc2)cc1 (stereo unspecified) based on its fold change.
A: med

Q: Please indicate the class for NCc1ccc(-c2cccs2)cc1 based on its fold change.
A: med

Q: Please indicate the class for CC(=O)O[C@]1(C(C)=O)CCC2C3C=C(C)C4=CC(=O)CC[C@]4(C)C3CC[C@@]21C (stereo partly specified) based on its fold change.
A: hi

Q: Please indicate the class for OCC1OC(O[C@]2(CCl)OC(CCl)C(O)C2O)C(O)C(O)C1Cl (stereo partly specified) based on its fold change.
A: med

Q: Please indicate the class for CCOC(=O)C(CCc1ccccc1)NC1CCCN2CCCC(C(=O)O)N2C1=O (stereo unspecified) based on its fold change.
A: med

Q: Please indicate the class for O=C(O)Cc1ccc(O)c(O)c1 based on its fold change.
A: hi

Q: Please indicate the class for O=C(O)CNC(=O)Cc1c[nH]c2ccccc12 based on its fold change.
A: lo

Q: Please indicate the class for CCOC(=O)c1c(C)n[nH]c1C based on its fold change.
A: med

Q: Please indicate the class for CCCCCCCCCC(=O)OC[C@H](CO)OC(=O)CCCCCCCCC based on its fold change.
A: hi

====

assay: compounds altering HSF1 focus formation in cells – imaging, Selleck Cancer Library (AID 1347162); conditions: human cells, HSF1 nuclear foci imaging, at 10 µM; measured here: HSF1 foci SSMD mean
Consider the following compounds; for each one, report its SSMD.
Give a plain numeric answer without units written out.

Measured SSMD, CCCCCCCCCCCCCCCCCCOP(=O)(O)OC1CC[N+](C)(C)CC1 : -3.23

Measured SSMD, C=CC(=O)N1CCCC(n2nc(-c3ccc(Oc4ccccc4)cc3)c3c(N)ncnc32)C1 (configuration not stated) : 2.74

Measured SSMD, N#C/C(=C1/Nc2ccccc2S1)c1ccnc(NCCc2cccnc2)n1 : 2.72

Measured SSMD, COc1ccc(Cc2nn3c([C@@H](CCCc4ccccc4)[C@@H](C)O)nc(C)c3c(=O)[nH]2)cc1OC : 2.11

Measured SSMD, COC(=O)c1ccc(O)c(NC(=O)COc2ccc(C34CC5CC(CC(C5)C3)C4)cc2)c1 : -6.52

Measured SSMD, N=C(N)SCCc1ccc(CCSC(=N)N)cc1 : 1.43

Measured SSMD, Nc1ncnc2c1c(-c1ccc(Oc3ccccc3)cc1)cn2C1CCCC1 : -0.154

====

experiment: blockers of polyQ-driven CASP3 activation – cell-based (AID 1583); settings: polyglutamine-induced caspase-3 activation, cell assay; stronger effect = higher value;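 tested at 10 µM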
Peptide text beside a SMILES is read from it.
Consider the following compounds; for each one, report its inhibition.
Dear colleague, please return just the value in %, with no unit written.

Measured inhibition, CCN(CCCc1ccccc1)CCCc1ccccc1 (tested in a mixture with another compound) : 13.3

Measured inhibition, CCCCC(=O)OC1(C(=O)CO)C(C)CC2C3CCC4=CC(=O)C=CC4(C)[C@@]3(F)[C@@H](O)CC21C (stereo partly specified) : 9.05

Measured inhibition, O=c1c(O)cc2c(O)oc3c(=O)c(O)cc4c3c2c1CC=4O : -1.16

Measured inhibition, COC1=C2C[C@@H](C)C[C@H](OC)[C@H](O)[C@@H](C)/C=C(\C)[C@@H](OC(N)=O)[C@H](OC)/C=C\C=C(/C)C(=O)NC(=CC1=O)C2=O : -5.02

Measured inhibition, CCC(=O)OC1CCC2C3CCc4cc(O)ccc4C3CCC12C (stereo unspecified) : 6.67

Measured inhibition, COc1cccc(C(=O)c2ccccc2O)c1O : -4.26

Measured inhibition, CC(=O)[C@H]1CCC2C3CC=C4C[C@@H](O)CC[C@]4(C)C3CC[C@@]21C (stereo partly specified) : 19.7

Measured inhibition, CC(NC(=O)C(NC(=O)OCc1ccccc1)C(C)C)C(=O)NC(CC(=O)O)C(=O)OC(F)F (stereo unspecified) : 59.7

Measured inhibition, NC[C@H]1O[C@H](O[C@H]2[C@H](O)[C@@H](O[C@H]3O[C@H](CO)[C@@H](O)[C@H](N)[C@H]3O)[C@H](N)C[C@@H]2N)[C@H](O)[C@@H](O)[C@@H]1O : 5.91

Measured inhibition, CC12CC[C@@H]3c4ccc(O)cc4CCC3[C@@H]1CCC2=O (stereo partly specified) : -0.88

Measured inhibition, CC(C)[C@@H](C)/C=C/[C@@H](C)C1CC[C@H]2/C(=C/C=C3\C[C@@H](O)CC[C@@H]3C)CCC[C@]12C (stereo partly specified) : 63.6

Measured inhibition, CC(=O)CCC1C2=NC(=C\C3=NC(=C(/C)C4=NC(C)(C5[N-]/C(=C\2C)C(C)(CCC(=O)NCC(C)OP(=O)(O)O[C@@H]2[C@@H](CO)OC(n6cnc7cc(C)c(C)cc76)[C@@H]2O)C5CC(N)=O)C(C)(CC(N)=O)C4CCC(N)=O)/C(C)(CC(N)=O)C3CCC(N)=O)/C1(C)C.[CH2-][C@H]1OC(n2cnc3c(N)ncnc32)[C@H](O)[C@@H]1O.[Co+2] (stereo partly specified) : 55.6

Measured inhibition, CC(=O)C1CCC2C3CC=C4CC(OS(=O)(=O)O)CC[C@]4(C)C3CC[C@]12C (stereo partly specified) : -1.98

Measured inhibition, NCCCCC(N)C(=O)NCC(=O)NC(Cc1cnc[nH]1)C(=O)NC(CCCCN)C(=O)O (stereo unspecified) (H-KGHK-OH; configuration not given here) : -1.51

Measured inhibition, CO/N=C(\C(=O)NC1C(=O)N2C(C(=O)O)=C(CSc3nc(=O)c(O)nn3C)CS[C@H]12)c1csc(N)n1 (stereo partly specified) : 3.84

Measured inhibition, CC(Cc1ccc(O)c(O)c1)C(C)Cc1ccc(O)c(O)c1 (stereo unspecified) : -3.14

====

test: drug combination growth inhibition, ovarian cancer – cell-based, oncology-focused library, rucaparib conditional, profiling panel (AID 1508598); details: patient-derived ovarian cancer cells, CellTiter-Glo viability, 144 h; at 0.0195 µM; OCI-P5x cells; without rucaparib; stronger effect = lower value
Activity calls are given as the source filed them.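 How the source made its calls: active means normalized viability below 100% at a tested concentration; inactive means the rest.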
measured_attribute: viability

Measured viability, C[C@]12CC[C@H]3c4ccc(O)cc4CC[C@H]3[C@@H]1CCC2=O : 96.2% (active)

Measured viability, O=C(/C=C/c1ccc2ccccc2n1)c1ccncc1 : 13.9% (active)

Measured viability, CC(C)CC(CC(=O)NO)C(=O)N[C@@H](Cc1ccc2ccccc2c1)C(=O)N[C@@H](C)C(=O)NCCN (stereo partly drawn) : 100% (active)

Measured viability, COc1cccc2c1C(=O)c1c(O)c3c(c(O)c1C2=O)C[C@@](O)(C(=O)CO)C[C@H]3O[C@H]1C[C@H](N)[C@@H](O)[C@H](C)O1 : 54.5% (active)

Measured viability, COc1ccc(C2=N[C@H](c3ccc(Cl)cc3)[C@@H](c3ccc(Cl)cc3)N2C(=O)N2CCNC(=O)C2)c(OC(C)C)c1 : 86.4% (active)

Measured viability, COc1cc(=C2C=c3ccccc3=N2)[nH]/c1=C\c1[nH]c(C)cc1C : 97.5% (active)

Measured viability, CCC1=CC2CN(C1)Cc1c([nH]c3ccccc13)[C@@](C(=O)OC)(c1cc3c(cc1OC)N(C)[C@H]1[C@@](O)(C(=O)OC)[C@H](OC(C)=O)[C@]4(CC)C=CCN5CC[C@@]31[C@H]54)C2 (stereo partly drawn) : 16.3% (active)

Measured viability, Cc1[nH]c(C=C2C(=O)Nc3ccc(S(=O)(=O)N(C)c4cccc(Cl)c4)cc32)c(C)c1C(=O)N1CCN(C)CC1 : 94.2% (active)
